Tested on: Mus musculus
Experiment: Anticonvulsant activity in mouse assessed as protection against maximal electroshock-induced seizure at 400 mg/kg
Type: functional, organism-based
Active and inactive are the calls of the source. The rule behind the calls is not given here.
Labels: active, inactive

[[record]]
smi = "CN(C)C(=O)C1=Cc2ccccc2S(=O)(=O)N1C"
category = "active"

[[record]]
smi = "CN1C(C(=O)NC2CC2)=C(Cl)c2ccccc2S1(=O)=O"
category = "active"

[[record]]
smi = "CCCNC(=O)C1=Cc2ccccc2S(=O)(=O)N1C"
category = "active"

[[record]]
smi = "CC1=C(C(=O)NC2CC2)N(C)S(=O)(=O)c2ccccc21"
category = "active"

[[record]]
smi = "O=C(NC1CC1)C1=C(Cl)c2ccccc2S(=O)(=O)N1Cc1ccccc1"
category = "inactive"

[[record]]
smi = "CCNC(=O)C1=Cc2ccccc2S(=O)(=O)N1C"
category = "active"

[[record]]
smi = "CN1C(C(=O)NC2CC2)=Cc2ccccc2S1(=O)=O"
category = "active"

[[record]]
smi = "CCN1C(C(=O)NC2CC2)=C(Cl)c2ccccc2S1(=O)=O"
category = "active"

[[record]]
smi = "CCC1=C(C(=O)NC2CC2)N(C)S(=O)(=O)c2ccccc21"
category = "active"

[[record]]
smi = "CC(=O)NCCNC(=O)C1=Cc2ccccc2S(=O)(=O)N1C"
category = "inactive"

[[record]]
smi = "CC(C)NC(=O)C1=Cc2ccccc2S(=O)(=O)N1C"
category = "active"

[[record]]
smi = "CN1C(C(=O)NC2CC2)=C(C2CC2)c2ccccc2S1(=O)=O"
category = "active"

[[record]]
smi = "CNC(=O)C1=Cc2ccccc2S(=O)(=O)N1C"
category = "active"

[[record]]
smi = "CN1C(C(=O)NCC(F)F)=Cc2ccccc2S1(=O)=O"
category = "active"

